# METHOD: Intranasal PK in rats: plasma concentrations of released oxymorphone by LC-MS/MS
# ASSAY CONDITIONS: Table 6, equivalent to 2 mg/kg freebase oxycodone
MEASURED PARAMETER: Cmax (ng/mL)
Please state the figure in ng/mL; there is no need to write the unit.

[in] Using the record for COc1ccc2c3c1O[C@H]1C(OC(=O)/C=C/c4ccccc4)=CC[C@@]4(O)[C@@H](C2)N(C)CC[C@]314 [6-Cinnamate-OC] , report its Cmax.
[out] 2.4

[in] Using the record for COc1ccc(C(=O)OC2=CC[C@@]3(O)[C@H]4Cc5ccc(OC)c6c5[C@@]3(CCN4C)[C@H]2O6)cc1 [Conjugate 4-MeO-Bz-OC] , report its Cmax.
[out] 9.4

[in] Using the record for COc1ccc2c3c1OC1C(OC(=O)C(C)c4ccc(CC(C)C)cc4)=CCC4(O)C(C2)N(C)CCC314 (mixture of isomers) [Conjugate 6-lbu-OC] , report its Cmax.
[out] 1.0

[in] Using the record for COc1ccc2c3c1O[C@H]1C(OC(=O)c4ccc(O)cc4)=CC[C@@]4(O)[C@@H](C2)N(C)CC[C@]314 [Conjugate 4-OH-Bz-OC] , report its Cmax.
[out] 19.0

Value source: patent US10544153B2
